- Tested on: Human immunodeficiency virus 1
- assay details: Antiviral activity against HIV1 P13 infected in human MT4 cells derived from viral passages with A-790742 harboring protease M46I, L63P, A71V, and V82G mutation assessed as reduction in viral cytopathogenicity treated 1 hr post infection measured 5 days post infection by MTT assay relative to wild type HIV1 RF
- Assay type: functional
assay endpoint: Ratio EC50
Response field accepts a number only; no unit should be typed.

CC(C)c1nc(CN(C)C(=O)N[C@H](C(=O)N[C@@H](Cc2ccccc2)C[C@H](O)[C@H](Cc2ccccc2)NC(=O)OCc2cncs2)C(C)C)cs1; 79
COC(=O)N[C@H](C(=O)N[C@H](Cc1ccc(-c2ccccn2)cc1)C[C@H](O)[C@H](Cc1ccccc1)NC(=O)[C@@H](N1CCN(Cc2cccc(C(C)(C)O)n2)C1=O)C(C)(C)C)C(C)(C)C; 72
CC(C)(C)NC(=O)[C@@H]1CN(Cc2cccnc2)CCN1C[C@@H](O)C[C@@H](Cc1ccccc1)C(=O)N[C@H]1c2ccccc2C[C@H]1O.O; 31
CC(C)(C)NC(=O)[C@@H]1C[C@@H]2CCCC[C@@H]2CN1C[C@@H](O)[C@H](Cc1ccccc1)NC(=O)[C@H](CC(N)=O)NC(=O)c1ccc2ccccc2n1; 21
COC(=O)N[C@H](C(=O)N[C@@H](Cc1ccccc1)[C@@H](O)CN(Cc1ccc(-c2ccccn2)cc1)NC(=O)[C@@H](NC(=O)OC)C(C)(C)C)C(C)(C)C; 31
Cc1c(O)cccc1C(=O)N[C@@H](CSc1ccccc1)[C@H](O)CN1C[C@H]2CCCC[C@H]2C[C@H]1C(=O)NC(C)(C)C; 67

What value of Ratio EC50 has been reported for the following compound? CC(C)CN(C[C@@H](O)[C@H](Cc1ccccc1)NC(=O)O[C@H]1CCOC1)S(=O)(=O)c1ccc(N)cc1
41

* * *

- Tested on: Human immunodeficiency virus 1
- assay details: Antiviral activity against HIV1 P21 infected in human MT4 cells derived from viral passages with A-790742 harboring protease L23I, L33F, K45I, A71A/V, V77I, V82L, and I84V mutation assessed as reduction in viral cytopathogenicity treated 1 hr post infection measured 5 days post infection by MTT assay relative to wild type HIV1 pNL4-3
- Type: functional
assay endpoint: Ratio EC50
Response field accepts a number only; no unit should be typed.

COC(=O)N[C@H](C(=O)N[C@@H](Cc1ccccc1)[C@@H](O)CN(Cc1ccc(-c2ccccn2)cc1)NC(=O)[C@@H](NC(=O)OC)C(C)(C)C)C(C)(C)C [ATAZANAVIR]; 145

Continue with the compound presented below.
Notebook: pull reported Ratio EC50 for Human immunodeficiency virus 1, entry CC(C)(C)NC(=O)[C@@H]1CN(Cc2cccnc2)CCN1C[C@@H](O)C[C@@H](Cc1ccccc1)C(=O)N[C@H]1c2ccccc2C[C@H]1O.O
14

* * *

- Tested on: Human immunodeficiency virus 1
- assay details: Antiviral activity against HIV1 B26 infected in human MT4 cells harboring protease L33F, K45I, M46I, I50V, I54V, A71V, and V82F mutation derived from viral passages with Lopinavir assessed as reduction in viral cytopathogenicity treated 1 hr post infection measured 5 days post infection by MTT assay
- Assay type: functional, organism-based
- cond: Human immunodeficiency virus 1, B26, MT4
Entries and their measured pEC50 follow.
Give only the number. pEC50 is defined as minus log10 of concentration in molar units.

What value of pEC50 has been reported for the following compound? COC(=O)N[C@H](C(=O)N[C@H](Cc1ccc(-c2ccccn2)cc1)C[C@H](O)[C@H](Cc1ccccc1)NC(=O)[C@@H](N1CCN(Cc2cccc(C(C)(C)O)n2)C1=O)C(C)(C)C)C(C)(C)C
7.66

What value of pEC50 has been reported for the following compound? COC(=O)N[C@H](C(=O)N[C@@H](Cc1ccccc1)[C@@H](O)CN(Cc1ccc(-c2ccccn2)cc1)NC(=O)[C@@H](NC(=O)OC)C(C)(C)C)C(C)(C)C
7.29

* * *

- Tested on: Human immunodeficiency virus 1
- assay details: Antiviral activity against HIV1 P21 infected in human MT4 cells derived from viral passages with A-790742 harboring protease L23I, L33F, K45I, A71A/V, V77I, V82L, and I84V mutation assessed as reduction in viral cytopathogenicity treated 1 hr post infection measured 5 days post infection by MTT assay relative to wild type HIV1 pNL4-3
- Assay type: functional
Entries and their measured Ratio EC50 follow.
Response field accepts a number only; no unit should be typed.

CC(C)(C)NC(=O)[C@@H]1C[C@@H]2CCCC[C@@H]2CN1C[C@@H](O)[C@H](Cc1ccccc1)NC(=O)[C@H](CC(N)=O)NC(=O)c1ccc2ccccc2n1; 5

Continue with the compound presented below.
What value of Ratio EC50 has been reported for the following compound? CC(C)CN(C[C@@H](O)[C@H](Cc1ccccc1)NC(=O)O[C@H]1CCOC1)S(=O)(=O)c1ccc(N)cc1
34

* * *

- System: Human immunodeficiency virus 1
- assay details: Antiviral activity against HIV1 clone4 infected in HEK293 cells harboring A-790742-selected protease L33F, A71V, G73S, V77I, V82L, and I84V mutation assessed as reduction in viral replication by luciferase reporter gene assay relative to wild type HIV1 pNL4-3
- Type: functional
Entries and their measured Ratio EC50 follow.
Response field accepts a number only; no unit should be typed.

Some molecules with recorded Ratio EC50:
COC(=O)N[C@H](C(=O)N[C@@H](Cc1ccccc1)[C@@H](O)CN(Cc1ccc(-c2ccccn2)cc1)NC(=O)[C@@H](NC(=O)OC)C(C)(C)C)C(C)(C)C; 16
COC(=O)N[C@H](C(=O)N[C@H](Cc1ccc(-c2ccccn2)cc1)C[C@H](O)[C@H](Cc1ccccc1)NC(=O)[C@@H](N1CCN(Cc2cccc(C(C)(C)O)n2)C1=O)C(C)(C)C)C(C)(C)C; 158

Continue with the molecule presented below.
What value of Ratio EC50 has been reported for the following molecule? CC(C)CN(C[C@@H](O)[C@H](Cc1ccccc1)NC(=O)O[C@H]1CCOC1)S(=O)(=O)c1ccc(N)cc1
2

* * *

- Tested on: Human immunodeficiency virus 1
- assay details: Antiviral activity against HIV1 clone4 infected in HEK293 cells harboring A-790742-selected protease L33F, A71V, G73S, V77I, V82L, and I84V mutation assessed as reduction in viral replication by luciferase reporter gene assay relative to wild type HIV1 pNL4-3
- Type: functional
Entries and their measured Ratio EC50 follow.
Response field accepts a number only; no unit should be typed.

Some molecules with recorded Ratio EC50:
CC(C)(C)NC(=O)[C@@H]1CN(Cc2cccnc2)CCN1C[C@@H](O)C[C@@H](Cc1ccccc1)C(=O)N[C@H]1c2ccccc2C[C@H]1O.O; 2
CC(C)(C)NC(=O)[C@@H]1C[C@@H]2CCCC[C@@H]2CN1C[C@@H](O)[C@H](Cc1ccccc1)NC(=O)[C@H](CC(N)=O)NC(=O)c1ccc2ccccc2n1; 1
CC(C)c1nc(CN(C)C(=O)N[C@H](C(=O)N[C@@H](Cc2ccccc2)C[C@H](O)[C@H](Cc2ccccc2)NC(=O)OCc2cncs2)C(C)C)cs1 [RITONAVIR]; 14

What value of Ratio EC50 has been reported for the following molecule? CC(C)CN(C[C@@H](O)[C@H](Cc1ccccc1)NC(=O)O[C@H]1CO[C@H]2OCC[C@H]21)S(=O)(=O)c1ccc(N)cc1
7

What value of Ratio EC50 has been reported for the following molecule? CCC[C@@]1(CCc2ccccc2)CC(O)=C([C@H](CC)c2cccc(NS(=O)(=O)c3ccc(C(F)(F)F)cn3)c2)C(=O)O1
6

What value of Ratio EC50 has been reported for the following molecule? Cc1c(O)cccc1C(=O)N[C@@H](CSc1ccccc1)[C@H](O)CN1C[C@H]2CCCC[C@H]2C[C@H]1C(=O)NC(C)(C)C
2
